test system: Rattus norvegicus; assay: Biodistribution of compound in rat brain after 5 min of administration; format: ADME, organism-based; details: in vivo
assay readout: Dose/g (%)
Please state the figure in %; there is no need to write the unit.

# substance, assay readout, observed value
records = [
    ("BIS(HEXAMETHYLBENZENE)TECHNETIUM", "Dose/g", 0.03),
    ("BIS(HEXAETHYLBENZENE) TECHNETIUM", "Dose/g", 0.06),
    ("BIS(DODECAHYDROTRIPHENYLENE) TECHNETIUM", "Dose/g", 0.02),
    ("BIS(PENTAMETHYLBENZENE) TECHNETIUM", "Dose/g", 0.02),
]

Please fill in: Dose/g reported for BIS(TRINDAN) TECHNETIUM = 0.02

---

tested on: Rattus norvegicus; assay: Biodistribution of compound in rat lung after 5 min of administration.; assay type: ADME, organism-based; details: in vivo
assay readout: Dose/g (%)
Please state the figure in %; there is no need to write the unit.

# substance, Dose/g / %
data = [
    ("BIS(HEXAETHYLBENZENE) TECHNETIUM", 5.7),
    ("BIS(INDAN)TECHNETIUM", 0.98),
    ("BIS(TETRAHYDROACENAPHTHENE) TECHNETIUM", 1.4),
    ("BIS(DODECAHYDROTRIPHENYLENE) TECHNETIUM", 1),
    ("BIS(HEXAMETHYLBENZENE)TECHNETIUM", 1.2),
    ("BIS(TRINDAN) TECHNETIUM", 1),
]

Okay, next one:
Please fill in: Dose/g reported for BIS(PENTAMETHYLBENZENE) TECHNETIUM = 1.6

---

test system: Rattus norvegicus; assay: Biodistribution of compound in rat heart after 5 min of administration; format: ADME, organism-based; conditions: in vivo
assay readout: Dose/g (%)
Please state the figure in %; there is no need to write the unit.

Please fill in: Dose/g reported for "BIS(TOLUENE)TECHNETIUM" = 0.22

---

test system: Rattus norvegicus; test: Biodistribution of compound in rat lung after 5 min of administration; assay type: ADME, organism-based; conditions: in vivo
assay readout: Dose/g (%)
Please state the figure in %; there is no need to write the unit.

Please fill in: Dose/g reported for "BIS(TOLUENE)TECHNETIUM" = 0.51

---

test: Plasma protein binding (human); format: ADME, cell-free
assay readout: Plasma binding (%)
Please state the figure in %; there is no need to write the unit.

Example entries and their recorded answers appear below.
# substance, Plasma binding [%]
rows = [
    ("BIS(DODECAHYDROTRIPHENYLENE) TECHNETIUM", 84),
    ("BIS(TETRAHYDROACENAPHTHENE) TECHNETIUM", 90),
    ("BIS(HEXAMETHYLBENZENE)TECHNETIUM", 72),
    ("BIS(HEXAETHYLBENZENE) TECHNETIUM", 84),
    ("BIS(TRINDAN) TECHNETIUM", 27),
    ("BIS(INDAN)TECHNETIUM", 17),
]

Please fill in: Plasma binding reported for BIS(PENTAMETHYLBENZENE) TECHNETIUM = 55

---

system: Rattus norvegicus; assay: Biodistribution of compound in rat blood after 5 min of administration.; assay type: ADME, organism-based; conditions: in vivo
assay readout: Dose/g (%)
Please state the figure in %; there is no need to write the unit.

Example entries and their recorded answers appear below.
# substance, observed value
measured = [
    ("BIS(HEXAETHYLBENZENE) TECHNETIUM", 0.4),
    ("BIS(HEXAMETHYLBENZENE)TECHNETIUM", 0.16),
    ("BIS(INDAN)TECHNETIUM", 0.077),
    ("BIS(TRINDAN) TECHNETIUM", 0.09),
    ("BIS(PENTAMETHYLBENZENE) TECHNETIUM", 0.14),
    ("BIS(DODECAHYDROTRIPHENYLENE) TECHNETIUM", 0.16),
]

Okay, next one:
Recorded Dose/g for BIS(TETRAHYDROACENAPHTHENE) TECHNETIUM on Rattus norvegicus was 0.23

---

tested on: Rattus norvegicus; test: Biodistribution of compound in rat heart after 5 min of administration.; assay type: ADME, organism-based; conditions: in vivo
Entries and their Dose/g values follow.
Please state the figure in %; there is no need to write the unit.

Please fill in: Dose/g reported for "BIS(INDAN)TECHNETIUM" = 1.1

Please fill in: Dose/g reported for BIS(HEXAETHYLBENZENE) TECHNETIUM = 1.3

Please fill in: Dose/g reported for BIS(TETRAHYDROACENAPHTHENE) TECHNETIUM = 4

Please fill in: Dose/g reported for BIS(DODECAHYDROTRIPHENYLENE) TECHNETIUM = 2.6

Please fill in: Dose/g reported for BIS(TRINDAN) TECHNETIUM = 1.5

Please fill in: Dose/g reported for "BIS(HEXAMETHYLBENZENE)TECHNETIUM" = 3

Please fill in: Dose/g reported for BIS(PENTAMETHYLBENZENE) TECHNETIUM = 3.5

---

assay: Biodistribution of compound in rat muscle after 5 min of administration.; format: ADME, organism-based, Muscle tissue; conditions: in vivo
assay readout: Dose/g

Example entries and their recorded answers appear below.
# substance, Dose/g
measured = [
    ("BIS(HEXAETHYLBENZENE) TECHNETIUM", "0.33%"),
    ("BIS(PENTAMETHYLBENZENE) TECHNETIUM", "0.66%"),
    ("BIS(TRINDAN) TECHNETIUM", "0.49%"),
]

Please fill in: Dose/g reported for "BIS(HEXAMETHYLBENZENE)TECHNETIUM" = 0.55%

Please fill in: Dose/g reported for BIS(DODECAHYDROTRIPHENYLENE) TECHNETIUM = 0.55%

---

Entries and their Dose/g values follow.
tested on: Rattus norvegicus; experiment: Biodistribution of compound in rat liver after 5 min of administration.; type: ADME, organism-based; conditions: in vivo
Please state the figure in %; there is no need to write the unit.

Example entries and their recorded answers appear below.
# substance, measure unit, observed value
rows = [
    ("BIS(TRINDAN) TECHNETIUM", "%", 1),
    ("BIS(TETRAHYDROACENAPHTHENE) TECHNETIUM", "%", 0.45),
    ("BIS(HEXAETHYLBENZENE) TECHNETIUM", "%", 8.4),
    ("BIS(PENTAMETHYLBENZENE) TECHNETIUM", "%", 0.45),
    ("BIS(HEXAMETHYLBENZENE)TECHNETIUM", "%", 0.79),
    ("BIS(INDAN)TECHNETIUM", "%", 1.7),
]

Please fill in: Dose/g reported for BIS(DODECAHYDROTRIPHENYLENE) TECHNETIUM = 1
